Test system: HCC 2998
testDetails: NCI tumour cell line growth inhibition, 48 h
Structures can show the parent of a compound that is named as a salt. Activity calls are given as the source filed them. Rule as the data show it: active = GI50 up to about 1.1 µM and inactive = higher.
Outcome (select one): 1.0 (active), 0.0 (inactive)

Solved entries (count: 3):
molecule=CS/C(=N\c1ccccc1Cl)NC(=O)c1ccc(Br)cc1 classification=0.0
molecule=C=CCN(C(C)=O)c1cc(OCc2ccccc2)c2c(c1)c(C)cn2S(=O)(=O)c1ccccc1 classification=0.0
molecule="CC[C@]12CN3CCc4c([nH]c5ccccc45)[C@@](C(=O)OC)(c4cc5c(cc4OC)N(C)[C@H]4[C@@](O)(C(=O)OC)[C@H](OC(C)=O)[C@]6(CC)C=CCN7CC[C@]54[C@@H]76)CC(C3)[C@H]1O2 (stereo partly drawn) [VINLEUROSINE SULFATE]" classification=1.0

Q: Hello, I am checking results. What call was entered for NC(=O)C1=C(c2ccccc2)c2ccccc2C1=O ?
Result: 0.0

Q: What did this assay record as the result for CCOC(=O)/C(C#N)=C1/C(O)=C(C(=O)OC)C(C(=O)OC)=C1C(=O)OC.c1ccncc1 ?
Result: 0.0

Q: Tell me the recorded outcome of this test for COc1cc2c(cc1OC)C1=CCC(c3ccccc3)[N+]1(C)CC2 (stereo not drawn) .
Result: 0.0

Q: What outcome does the record of this test show for CC12CCC(=O)C[C@H]1CCC(OC=O)C2Br (stereo partly drawn) ?
Result: 0.0

Q: Please indicate how the test categorized COc1ccc(C2CC(=O)CC(c3ccc(OC)cc3)C23C(=O)NC(=O)NC3=O)cc1 (stereo not drawn) .
Result: 0.0

Q: Please share the test call associated with CCN(CC)CC/N=C\c1c(O)c(O)c(C(C)C)c2cc(C)c(-c3c(C)cc4c(C(C)C)c(O)c(O)c(/C=N/CCN(CC)CC)c4c3O)c(O)c12 .
Result: 0.0
